system.name: Aldose Reductase (Bos taurus, UniProt P16116)
Construct: The enzyme is extracted from beef eye lenses; from tissue; host or cells: beef eye lenses
assay.info: Inhibition of aldose reductase in vitro (enzyme from beef eye lenses, glyceraldehyde substrate)
Assay type: biochemical
experimental.context: 10^-5 mole/l, in DMF solution; read-out: percentages of inhibition (aldose reductase)
Please enter Satisfied where inhibition at 10 µM is greater than or equal to 60%, and Not satisfied where it is lower.

Would you please look over these solved cases?
molecule: C[C@@H]1O[C@@H](OC[C@H]2O[C@@H](Oc3c(-c4ccc(O)c(O)c4)oc4cc(O)cc(O)c4c3=O)[C@H](O)[C@@H](O)[C@@H]2O)[C@@H]2OC3(CCC4CCCCC4C3)O[C@@H]2[C@H]1O (some centres unmarked) [No. 28]
assigned.category: Satisfied
//
molecule: CC1(C)OC[C@H]2O[C@@H](Oc3c(-c4ccc(O)c(O)c4)oc4cc(O)cc(O)c4c3=O)[C@H](O)[C@@H](O)[C@@H]2O1 [No. 5]
assigned.category: Not satisfied
//
molecule: Cc1ccc(C2(C)O[C@@H]3[C@@H](O)[C@H](C)O[C@@H](OC[C@H]4O[C@@H](Oc5c(-c6ccc(O)c(O)c6)oc6cc(O)cc(O)c6c5=O)[C@H](O)[C@@H](O)[C@@H]4O)[C@@H]3O2)cc1 (some centres unmarked) [No. 35]
assigned.category: Satisfied
//
molecule: COc1ccc(C2(C)O[C@@H]3[C@@H](O)[C@H](C)O[C@@H](OC[C@H]4O[C@@H](Oc5c(-c6ccc(O)c(O)c6)oc6cc(O)cc(O)c6c5=O)[C@H](O)[C@@H](O)[C@@H]4O)[C@@H]3O2)cc1 (some centres unmarked) [No. 36]
assigned.category: Satisfied

# input for lookup
Hello, I need to know if COc1ccc(C2O[C@@H]3[C@@H](O)[C@H](C)O[C@@H](OC[C@H]4O[C@@H](Oc5c(-c6ccc(O)c(O)c6)oc6cc(O)cc(O)c6c5=O)[C@H](O)[C@@H](O)[C@@H]4O)[C@@H]3O2)cc1 (some centres unmarked) [No. 22] has measured inhibition at 10 µM not below 60%. Thanks! Satisfied
